Values compiled from ChEMBL document CHEMBL2046435.

- Tested on: BGC-823
- Experiment: Cytotoxicity against human BGC823 cells after 72 hrs by MTT assay
- Type: functional, cell-based
- Condition description: BGC-823, 72 h
Listing: IC50 of selected molecules
Quantity: IC50

Molecule | Assayed system | Quantity | Result value
CON1C(=O)C(CO)NC(=O)C1(O)Cc1c[nH]c2ccccc12 (centres undefined) | BGC-823 | IC50 | > 10 µM
CS[C@]1(CO)NC(=O)[C@](Cc2c[nH]c3ccccc23)(SC)NC1=O | BGC-823 | IC50 | > 10 µM
CN1C(=O)[C@]23SSS[C@]1(CO)C(=O)N2[C@H]1Nc2ccccc2[C@@]1(c1c[nH]c2ccccc12)[C@@H]3O | BGC-823 | IC50 | 1.46 µM
CS[C@@]1(CO)C(=O)N2[C@H]3Nc4ccccc4[C@@]3(c3c[nH]c4ccccc34)[C@H](O)[C@]2(SC)C(=O)N1C | BGC-823 | IC50 | > 10 µM

###

Listing: pIC50 of selected molecules
- Test system: A2780
- Experiment: Cytotoxicity against human A2780 cells after 72 hrs by MTT assay
- Format: functional, cell-based
- Condition description: A2780, 72 h
pIC50: −log10 of the molar value.

Molecule | Relational operator | pIC50
CS[C@@]1(CO)C(=O)N2[C@H]3N(C=O)c4ccccc4[C@@]3(c3c[nH]c4ccccc34)[C@H](O)[C@]2(SC)C(=O)N1C | < | 5.00
CN1C(=O)[C@]23SS[C@@]1(CO)C(=O)N2[C@H]1Nc2ccccc2C1([C@@]12c4ccccc4N[C@@H]1N1C(=O)[C@]4(CO)SS[C@]1(C(=O)N4C)[C@H]2O)[C@@H]3O (stereo partly drawn) | = | 7.27
CS[C@@]1(CO)C(=O)N2[C@H]3Nc4ccccc4[C@@]3(c3c[nH]c4ccccc34)[C@H](O)[C@]2(SC)C(=O)N1C | < | 5.00
COC1(CO)NC(=O)/C(=C/c2c[nH]c3ccccc23)NC1=O (stereo not drawn) | < | 5.00
CN1C(=O)[C@]23SSS[C@]1(CO)C(=O)N2[C@H]1Nc2ccccc2[C@@]1(c1c[nH]c2ccccc12)[C@@H]3O | = | 6.38
CS[C@@]1(CO)C(=O)N2[C@H]3Nc4ccccc4C3([C@@]34c5ccccc5N[C@@H]3N3C(=O)[C@](CO)(SC)N(C)C(=O)[C@@]3(SC)[C@H]4O)[C@H](O)[C@]2(SC)C(=O)N1C (stereo partly drawn) | = | 5.78
C=C1NC(=O)C(Cc2c[nH]c3ccccc23)(OC)N(OC)C1=O (stereo not drawn) | < | 5.00
CN1C(=O)[C@]23SSS[C@@]1(CO)C(=O)N2[C@H]1Nc2ccccc2C1([C@@]12c4ccccc4N[C@@H]1N1C(=O)[C@]4(CO)SSS[C@]1(C(=O)N4C)[C@H]2O)[C@@H]3O (stereo partly drawn) | = | 6.24

###

Listing: IC50 of selected compounds
- Test system: BGC-823
- Experiment: Cytotoxicity against human BGC823 cells after 72 hrs by MTT assay
- Format: functional, cell-based
- Condition description: BGC-823, 72 h

Compound | Assayed system | IC50
CS[C@@]1(CO)C(=O)N2[C@H]3N(C=O)c4ccccc4[C@@]3(c3c[nH]c4ccccc34)[C@H](O)[C@]2(SC)C(=O)N1C [OIDIOPERAZINE A] | BGC-823 | > 10 µM
CN1C(=O)[C@]23SS[C@@]1(CO)C(=O)N2[C@H]1Nc2ccccc2C1([C@@]12c4ccccc4N[C@@H]1N1C(=O)[C@]4(CO)SS[C@]1(C(=O)N4C)[C@H]2O)[C@@H]3O (stereo partly drawn) [MELINACIDIN IV] | BGC-823 | 0.047 µM
O=C1N[C@@H](Cc2c[nH]c3ccccc23)C(=O)N[C@H]1CO | BGC-823 | > 10 µM

###

Listing: pIC50 of selected compounds
- Tested on: BGC-823
- Experiment: Cytotoxicity against human BGC823 cells after 72 hrs by MTT assay
- Format: functional, cell-based
- Condition description: BGC-823, 72 h
pIC50: −log10 of the molar value.

Compound | Assayed system | Relational operator | pIC50
CC(=O)O[C@H]1C(=O)[C@@]2(C)[C@H]([C@H](OC(=O)c3ccccc3)[C@]3(O)C[C@H](OC(=O)[C@H](O)[C@@H](NC(=O)c4ccccc4)c4ccccc4)C(C)=C1C3(C)C)[C@]1(OC(C)=O)CO[C@@H]1C[C@@H]2O [PACLITAXEL] | BGC-823 | > | 9.00
CN1C(=O)[C@]23SSS[C@@]1(CO)C(=O)N2[C@H]1Nc2ccccc2C1([C@@]12c4ccccc4N[C@@H]1N1C(=O)[C@]4(CO)SSS[C@]1(C(=O)N4C)[C@H]2O)[C@@H]3O (some centres not stated) [CHETRACIN C] | BGC-823 | = | 6.15

###

- System: BGC-823
- Experiment: Cytotoxicity against human BGC823 cells after 72 hrs by MTT assay
- Format: functional, cell-based
- Condition description: BGC-823, 72 h

Compound | Relational operator | IC50 (nM)
C=C1NC(=O)C(Cc2c[nH]c3ccccc23)(OC)N(OC)C1=O (stereo not given) | > | 10000
CS[C@@]1(CO)C(=O)N2[C@H]3Nc4ccccc4C3([C@@]34c5ccccc5N[C@@H]3N3C(=O)[C@](CO)(SC)N(C)C(=O)[C@@]3(SC)[C@H]4O)[C@H](O)[C@]2(SC)C(=O)N1C (stereo not given in full) | = | 1830
CN1C(=O)[C@]23SS[C@]1(CO)C(=O)N2[C@H]1Nc2ccccc2[C@@]1(c1c[nH]c2ccccc12)[C@@H]3O | = | 670
CN1C(=O)[C@]23SS[C@@]1(CO)C(=O)N2[C@H]1Nc2ccccc2C1([C@@]12c4ccccc4N[C@@H]1N1C(=O)[C@]4(CO)SSS[C@]1(C(=O)N4C)[C@H]2O)[C@@H]3O (stereo not given in full) | = | 11
COC1(CO)NC(=O)/C(=C/c2c[nH]c3ccccc23)NC1=O (stereo not given) | > | 10000

###

- Tested on: A2780
- Experiment: Cytotoxicity against human A2780 cells after 72 hrs by MTT assay
- Format: functional, cell-based
- Condition description: A2780, 72 h
pIC50: −log10 of the molar value.
Listing: pIC50 of selected molecules

Molecule | pIC50
CC(=O)O[C@H]1C(=O)[C@@]2(C)[C@H]([C@H](OC(=O)c3ccccc3)[C@]3(O)C[C@H](OC(=O)[C@H](O)[C@@H](NC(=O)c4ccccc4)c4ccccc4)C(C)=C1C3(C)C)[C@]1(OC(C)=O)CO[C@@H]1C[C@@H]2O | > 9.00
CN1C(=O)[C@]23SS[C@]1(CO)C(=O)N2[C@H]1Nc2ccccc2[C@@]1(c1c[nH]c2ccccc12)[C@@H]3O | 6.32
CN1C(=O)[C@]23SS[C@@]1(CO)C(=O)N2[C@H]1Nc2ccccc2C1([C@@]12c4ccccc4N[C@@H]1N1C(=O)[C@]4(CO)SSS[C@]1(C(=O)N4C)[C@H]2O)[C@@H]3O (stereo partly specified) | 7.55
CS[C@]1(CO)NC(=O)[C@](Cc2c[nH]c3ccccc23)(SC)NC1=O | < 5.00
CON1C(=O)C(CO)NC(=O)C1(O)Cc1c[nH]c2ccccc12 (stereo unspecified) | < 5.00
O=C1N[C@@H](Cc2c[nH]c3ccccc23)C(=O)N[C@H]1CO | < 5.00
